# experimentalTarget: GnRH receptor (Homo sapiens)
# Construct: expressed in transfected cells
# Sequence (P30968 whole entry, species assumed): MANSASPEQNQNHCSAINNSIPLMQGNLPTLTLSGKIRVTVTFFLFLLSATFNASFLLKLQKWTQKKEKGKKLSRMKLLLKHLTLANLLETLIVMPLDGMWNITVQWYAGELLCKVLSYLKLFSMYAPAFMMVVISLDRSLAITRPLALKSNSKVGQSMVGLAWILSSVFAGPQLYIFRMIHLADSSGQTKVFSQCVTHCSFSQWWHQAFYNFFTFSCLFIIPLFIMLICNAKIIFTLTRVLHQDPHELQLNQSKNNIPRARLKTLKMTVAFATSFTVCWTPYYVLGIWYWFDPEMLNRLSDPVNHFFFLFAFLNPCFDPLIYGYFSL
# measurementDescription: GnRH receptor membrane binding assay
measurementLabel: Ki

# molecule, experimentalTarget, measurementLabel, reportedValue
rows = [
    ("COc1cccc(-c2c(C)n(Cc3c(F)cccc3F)c(=O)n(CCN(C)CCc3ccccn3)c2=O)c1F [9-24]", "GnRH receptor (Homo sapiens)", "Ki", "< 100 nM"),
    ("Cc1cccc(-c2c(C)n(Cc3c(F)cccc3F)c(=O)n(C[C@H](N)c3ccccc3)c2=O)c1F [8-17]", "GnRH receptor (Homo sapiens)", "Ki", "< 100 nM"),
]

----------
# experimentalTarget: GnRH receptor (Homo sapiens)
# Construct: expressed in transfected cells
# measurementDescription: GnRH receptor membrane binding assay
# details: GnRH receptor membrane binding assay, [125I]-labeled GnRH peptide; read-out: Ki
pKi: −log10 of the molar value.
measurementLabel: pKi

# chemicalString, measurementLabel, reportedValue
data = [
    ("COc1cccc(-c2c(C)n(Cc3c(F)cccc3F)c(=O)n([C@H](C)CNCc3cc(Cl)ccc3O)c2=O)c1F", "pKi", "> 7.00"),
    ("COc1cccc(-c2c(C)n(Cc3c(F)cccc3F)c(=O)n(C[C@@H](NC(C)C)C(C)C)c2=O)c1F", "pKi", "> 7.00"),
    ("COc1cccc(-c2c(C)n(Cc3c(F)cccc3F)c(=O)n(CCN3CCC[C@@H]3CO)c2=O)c1", "pKi", "> 7.00"),
    ("COc1cccc(-c2c(C)n(Cc3c(F)cccc3F)c(=O)n(CCN(C)CCc3cccc(Cl)n3)c2=O)c1", "pKi", "> 7.00"),
]

Every entry's value here was drawn from patent US7462625B2.
